All values here come from ChEMBL document CHEMBL2413023.

Reported values of selectivity ratio for individual entries
- Test description: in vitro
- Condition set: human, WI38 cells
- Description: Selectivity index, ratio of IC50 for human WI38 cells to IC50 for Trypanosoma brucei brucei Lister 427 bloodstream form

>>> measured_value("C=C[C@H]1CN2CC[C@H]1C[C@H]2[C@@H](O)c1cc(CC[C@@H](C)[C@H]2CC[C@H]3[C@@H]4[C@H](O)C[C@@H]5C[C@H](O)CC[C@]5(C)[C@H]4CC[C@]23C)nc2ccc(OC)cc12")
5.3

Shifting focus to the compound that follows.
Challenge: Which selectivity ratio value belongs to C=C[C@H]1CN2CC[C@H]1C[C@H]2[C@@H](O)c1cc(CC[C@@H](C)[C@H]2CC[C@H]3[C@@H]4[C@H](O)C[C@@H]5C[C@H](O)CC[C@]5(C)[C@H]4CC[C@]23C)nc2ccccc12 ?
Response given: 3.6
